So I've got a bunch of binders here, and I need their MFI values.
- TARGET_OR_TEST_SYSTEM: human DLL3 protein expressed on CHO-K1 recombinant cells (human DLL3 extracellular segment fused to EpCAM transmembrane and intracellular regions) (human) (UniProt Q9NYJ7)
- Sequence (Q9NYJ7 other isoform, or with tags, fused parts or gaps limits assumed): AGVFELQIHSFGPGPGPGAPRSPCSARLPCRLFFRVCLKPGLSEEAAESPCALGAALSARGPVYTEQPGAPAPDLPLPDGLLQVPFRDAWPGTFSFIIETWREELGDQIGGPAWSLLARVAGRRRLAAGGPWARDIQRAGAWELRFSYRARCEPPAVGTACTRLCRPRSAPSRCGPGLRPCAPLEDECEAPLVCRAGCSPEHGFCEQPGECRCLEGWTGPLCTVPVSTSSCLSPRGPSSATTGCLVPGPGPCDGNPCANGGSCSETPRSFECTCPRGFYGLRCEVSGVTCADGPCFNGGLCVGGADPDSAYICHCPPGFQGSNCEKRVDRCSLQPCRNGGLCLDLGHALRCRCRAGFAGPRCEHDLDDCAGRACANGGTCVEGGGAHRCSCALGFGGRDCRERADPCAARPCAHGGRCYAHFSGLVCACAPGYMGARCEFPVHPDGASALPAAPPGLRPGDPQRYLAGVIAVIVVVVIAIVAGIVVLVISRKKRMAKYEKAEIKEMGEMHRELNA
- TEST_SUMMARY: FACS, CHO-K1 hDLL3 cells, 4 nM antibody
Only the number, expressed in MFI, is required.

# query: MFI of entry Hab015VL4VH6a-hFc (scFv, part only; not given: scFv linker and human IgG1 Fc, V domains shown, not shown: another chain or arm of the molecule; a dimerising Fc or GST; small tags and cut ends) VL: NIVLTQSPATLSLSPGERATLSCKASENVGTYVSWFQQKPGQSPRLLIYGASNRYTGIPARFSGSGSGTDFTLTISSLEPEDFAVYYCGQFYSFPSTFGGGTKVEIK VH: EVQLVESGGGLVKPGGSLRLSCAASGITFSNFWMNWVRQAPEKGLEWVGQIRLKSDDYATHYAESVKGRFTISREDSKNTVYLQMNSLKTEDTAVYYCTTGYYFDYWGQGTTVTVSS
11200

# query: MFI of entry Hab015VL4VH1b-hFc (scFv, part only; not given: VL-VH linker and human IgG1 Fc, V domains shown, not shown: another chain or arm of the molecule; a dimerising Fc or GST; small tags and cut ends) VL: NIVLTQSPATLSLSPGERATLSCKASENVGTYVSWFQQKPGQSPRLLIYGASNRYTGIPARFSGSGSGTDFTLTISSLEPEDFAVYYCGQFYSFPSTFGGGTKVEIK VH: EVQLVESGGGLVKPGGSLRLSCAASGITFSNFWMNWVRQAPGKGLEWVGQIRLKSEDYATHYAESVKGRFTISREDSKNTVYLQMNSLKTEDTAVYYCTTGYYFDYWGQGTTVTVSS
10300

# query: MFI of entry Hab015VL5VH1a-hFc (scFv, part only; not given: scFv linker and human IgG1 Fc, V domains shown, not shown: another chain or arm of the molecule; a dimerising Fc or GST; small tags and cut ends) VL: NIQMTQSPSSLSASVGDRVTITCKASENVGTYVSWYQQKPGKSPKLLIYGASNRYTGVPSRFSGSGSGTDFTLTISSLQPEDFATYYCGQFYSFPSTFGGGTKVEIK VH: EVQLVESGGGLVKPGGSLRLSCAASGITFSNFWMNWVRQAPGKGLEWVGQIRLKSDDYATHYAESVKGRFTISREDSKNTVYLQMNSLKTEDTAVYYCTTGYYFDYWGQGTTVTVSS
10600

# query: MFI of entry Hab014VL1VH2-hFc (scFv, part only; not given: VL-VH linker and human IgG1 Fc, V domains shown, not shown: another chain or arm of the molecule; a dimerising Fc or GST; small tags and cut ends) VL: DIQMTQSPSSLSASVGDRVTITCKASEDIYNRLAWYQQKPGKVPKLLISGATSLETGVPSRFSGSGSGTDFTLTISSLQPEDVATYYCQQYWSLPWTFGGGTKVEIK VH: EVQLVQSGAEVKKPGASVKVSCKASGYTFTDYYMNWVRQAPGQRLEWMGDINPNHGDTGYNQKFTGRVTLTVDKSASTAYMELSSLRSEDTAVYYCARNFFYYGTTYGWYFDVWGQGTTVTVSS
14000

# query: MFI of entry Hab015VL5VH6a-hFc (scFv, part only; not given: scFv linker and human IgG1 Fc, V domains shown, not shown: another chain or arm of the molecule; a dimerising Fc or GST; small tags and cut ends) VL: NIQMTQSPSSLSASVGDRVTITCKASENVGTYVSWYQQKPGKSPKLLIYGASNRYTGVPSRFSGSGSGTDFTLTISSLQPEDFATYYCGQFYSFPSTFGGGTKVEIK VH: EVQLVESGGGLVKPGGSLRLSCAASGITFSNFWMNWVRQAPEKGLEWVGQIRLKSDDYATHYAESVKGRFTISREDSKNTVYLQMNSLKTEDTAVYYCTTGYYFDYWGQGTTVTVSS
9720

# query: MFI of entry BI3 (antibody, human IgG1, kappa, V domains shown) VH: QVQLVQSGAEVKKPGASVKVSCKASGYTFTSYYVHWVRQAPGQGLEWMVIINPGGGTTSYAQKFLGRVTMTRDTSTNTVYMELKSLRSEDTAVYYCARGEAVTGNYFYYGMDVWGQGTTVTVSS VL: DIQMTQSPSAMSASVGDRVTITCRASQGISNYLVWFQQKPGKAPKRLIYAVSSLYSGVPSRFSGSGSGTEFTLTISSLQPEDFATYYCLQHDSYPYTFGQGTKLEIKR
12600

# query: MFI of entry Hab015VL5VH5a-hFc (scFv, part only; not given: scFv linker and human IgG1 Fc, V domains shown, not shown: another chain or arm of the molecule; a dimerising Fc or GST; small tags and cut ends) VL: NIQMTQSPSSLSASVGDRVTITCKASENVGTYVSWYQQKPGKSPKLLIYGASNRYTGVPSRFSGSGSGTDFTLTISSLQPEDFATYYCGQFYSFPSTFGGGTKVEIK VH: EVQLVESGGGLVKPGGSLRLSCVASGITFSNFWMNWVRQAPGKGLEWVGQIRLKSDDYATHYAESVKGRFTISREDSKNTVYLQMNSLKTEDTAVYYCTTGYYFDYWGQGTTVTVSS
10700

# query: MFI of entry Hab009VL2aVH1-hFc (scFv, part only; not given: VL-VH linker and human IgG1 Fc, V domains shown, not shown: another chain or arm of the molecule; a dimerising Fc or GST; small tags and cut ends) VL: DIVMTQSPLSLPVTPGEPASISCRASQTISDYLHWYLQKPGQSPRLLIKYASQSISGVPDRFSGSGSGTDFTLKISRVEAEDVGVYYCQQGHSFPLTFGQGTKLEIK VH: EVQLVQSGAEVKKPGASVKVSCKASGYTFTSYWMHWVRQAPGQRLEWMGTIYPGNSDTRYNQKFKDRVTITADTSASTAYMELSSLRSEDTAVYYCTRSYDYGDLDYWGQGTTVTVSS
12700

# query: MFI of entry Hab015VL4VH5a-hFc (scFv, part only; not given: VL-VH linker and human IgG1 Fc, V domains shown, not shown: another chain or arm of the molecule; a dimerising Fc or GST; small tags and cut ends) VL: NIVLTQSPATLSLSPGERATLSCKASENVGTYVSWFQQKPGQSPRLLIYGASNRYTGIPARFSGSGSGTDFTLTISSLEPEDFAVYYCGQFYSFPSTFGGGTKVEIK VH: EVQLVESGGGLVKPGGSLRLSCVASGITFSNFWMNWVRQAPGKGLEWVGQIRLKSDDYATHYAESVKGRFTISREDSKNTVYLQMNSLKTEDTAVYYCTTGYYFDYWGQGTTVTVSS
10900

# query: MFI of entry Hab009VL1aVH1-hFc (scFv, part only; not given: scFv linker and human IgG1 Fc, V domains shown, not shown: another chain or arm of the molecule; a dimerising Fc or GST; small tags and cut ends) VL: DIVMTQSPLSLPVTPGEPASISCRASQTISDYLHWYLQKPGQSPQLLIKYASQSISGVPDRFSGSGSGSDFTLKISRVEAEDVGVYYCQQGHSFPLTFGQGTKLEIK VH: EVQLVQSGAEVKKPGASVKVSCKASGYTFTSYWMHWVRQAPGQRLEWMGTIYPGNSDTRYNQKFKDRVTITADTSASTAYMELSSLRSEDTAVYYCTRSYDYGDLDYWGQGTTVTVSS
11900
